Assay target: T1, human IL-25 (human, UniProt Q9H293 33-177)
T1 construct: ELISA used bought R&D systems #1258-IL-025/CF; Treated as one molecule; also called IL-17E; human IL-17E
T1 sequence (looked up): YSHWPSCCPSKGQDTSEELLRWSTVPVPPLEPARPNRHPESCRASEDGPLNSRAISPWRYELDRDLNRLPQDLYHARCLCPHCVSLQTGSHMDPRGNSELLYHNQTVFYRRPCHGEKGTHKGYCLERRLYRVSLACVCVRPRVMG
Assay remarks: SPR, Biacore T200; antibody captured by anti-human Fc, IL-25 as analyte
Give koff for every item shown.
Only the number, expressed in s⁻¹, is required.

Value lookup for koff; key = VH2-1 + VL1-2 (humanized anti-IL-25 antibody formed by VH2-1 and VL1-2) (antibody, V domains shown) VH: QVTLRESGPALLKPTQTLTLTCTFSGFSLSTSGMGLGWIRQPPGKALEWLAHIWWDDVKHYKPALKSRLTISKDTSKNQVVLTITNVDPVDTATYYCARMGQLHYYGYDYAMDYWGQGTLVTVSS VL: EIVLTQSPATLSASPGERVTISCSASSSVSYMYWYQQKPGQAPRPLIYRTSNLASGVPARFSGSGSGTDYTLTISSMEPEDFATYYCQLYHSYPPTWTFGQGTKLEIK
0.000327

So what's the measured koff for this one? VH1-1 + VL1-2 (humanized anti-IL-25 antibody formed by VH1-1 and VL1-2) (antibody, V domains shown, Captured by anti-human Fc gamma antibody in SPR) VH: QVTLKESGPTLVKPTQTLTLTCTFSGFSLSTSGMGLGWIRQPPGKALEWLAHIWWDDVKHYKPALKSRLTITKDTSKNQVVLTMTNVDPVDTATYYCARMGQLHYYGYDYAMDYWGQGTLVTVSS VL: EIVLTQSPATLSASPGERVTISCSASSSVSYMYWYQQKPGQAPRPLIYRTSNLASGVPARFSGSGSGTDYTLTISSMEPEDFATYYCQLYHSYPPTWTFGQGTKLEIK
0.000284

# get_value(readout='koff', item= VH2-1 + VL2-1 (humanized anti-IL-25 antibody formed by VH2-1 and VL2-1) (antibody, V domains shown) VH: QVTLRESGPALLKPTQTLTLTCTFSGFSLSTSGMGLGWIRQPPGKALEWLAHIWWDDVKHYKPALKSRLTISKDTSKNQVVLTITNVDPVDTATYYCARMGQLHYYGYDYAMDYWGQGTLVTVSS VL: DIQLTQSPSFLSASVGDRVTITCSASSSVSYMYWYQQKPGKAPKPLIYRTSNLASGVPSRFSGSGSGTEYTLTISSMQPEDFATYYCQLYHSYPPTWTFGQGTKLEIK )
0.000353

What does the record list as koff for VH1-1 + VL2-1 (humanized anti-IL-25 antibody formed by VH1-1 and VL2-1) (antibody, V domains shown) VH: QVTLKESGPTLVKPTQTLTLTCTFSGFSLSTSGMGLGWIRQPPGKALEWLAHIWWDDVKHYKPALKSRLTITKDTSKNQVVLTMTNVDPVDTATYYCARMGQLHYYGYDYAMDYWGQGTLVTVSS VL: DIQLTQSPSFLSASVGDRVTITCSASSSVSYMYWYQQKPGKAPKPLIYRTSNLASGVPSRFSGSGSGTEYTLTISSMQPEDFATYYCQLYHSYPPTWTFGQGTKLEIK ?
0.000259

Data request, read-out koff, for murine anti-IL-25 monoclonal antibody 18H3 (antibody, V domains shown, also called parental antibody; parental murine mAb) VH: QVTLKESGPGILQPSQTLSLTCSFSGFSLSTSGMGLGWIRQPSGKGLEWLAHIWWDDVKHYKPALKSRLTISKDISSSQVFLTIASVDTADTATYYCARMGQLHYYGYDYAMDYWGQGTSVTVSS VL: QIVLTQSPAIMSASPGEKVTISCSASSSVSYMYWYQQKPGSSPKPWIYRTSNLASGVPARFSGSGSGTSYSLTISSMEAEDAATYYCQLYHSYPPTWTFGGGTKLEIK
0.000267
